Data provenance is patent US20240300976A1.

pIC50: −log10 of the molar value.
Notes on pIC50 obtained with ERAP1 (Homo sapiens).
Sequence (Q9NZ08 37-941): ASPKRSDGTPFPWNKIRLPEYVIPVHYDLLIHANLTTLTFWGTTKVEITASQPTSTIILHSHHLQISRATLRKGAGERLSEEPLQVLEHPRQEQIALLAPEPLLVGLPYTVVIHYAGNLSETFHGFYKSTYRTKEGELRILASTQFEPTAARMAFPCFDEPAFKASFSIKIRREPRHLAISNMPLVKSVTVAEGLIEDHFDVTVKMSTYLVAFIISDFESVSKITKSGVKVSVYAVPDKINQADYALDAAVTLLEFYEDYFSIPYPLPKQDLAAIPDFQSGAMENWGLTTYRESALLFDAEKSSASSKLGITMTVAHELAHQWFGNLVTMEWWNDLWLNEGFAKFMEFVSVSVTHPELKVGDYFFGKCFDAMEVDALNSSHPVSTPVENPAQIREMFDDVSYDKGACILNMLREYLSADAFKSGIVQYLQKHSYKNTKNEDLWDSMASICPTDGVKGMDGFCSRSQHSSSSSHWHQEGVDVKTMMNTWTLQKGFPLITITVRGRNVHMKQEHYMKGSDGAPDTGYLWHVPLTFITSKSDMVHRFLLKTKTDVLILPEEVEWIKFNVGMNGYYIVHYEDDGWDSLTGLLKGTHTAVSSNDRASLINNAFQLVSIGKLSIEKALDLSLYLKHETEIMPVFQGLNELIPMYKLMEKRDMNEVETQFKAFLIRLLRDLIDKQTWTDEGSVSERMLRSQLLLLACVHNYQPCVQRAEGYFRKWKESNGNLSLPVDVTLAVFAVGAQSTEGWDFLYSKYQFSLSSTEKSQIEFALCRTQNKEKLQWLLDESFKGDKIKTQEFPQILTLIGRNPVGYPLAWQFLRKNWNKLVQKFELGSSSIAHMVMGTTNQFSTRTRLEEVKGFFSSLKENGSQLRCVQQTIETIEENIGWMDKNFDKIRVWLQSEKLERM

Consider the worked cases shown below.
[[record]]
molecule = "N#Cc1ccc2c(c1)NS(=O)(=O)c1cc(C(=O)O)ccc1OCCCC1CCCCN21 (single isomer, unassigned)"
reported_value = "> 6.60"

[[record]]
molecule = "CS(=O)(=O)c1cc2c(cc1F)N1CCCCC1CCCCOc1ccc(C(=O)O)cc1S(=O)(=O)N2 (single isomer, unassigned)"
reported_value = "6.00 to 6.60"

[[record]]
molecule = "N#Cc1cc2c(cc1Cl)N1CCCCC1/C=C/COc1ccc(C(=O)O)cc1S(=O)(=O)N2 (single isomer, unassigned)"
reported_value = "> 6.60"

[[record]]
molecule = "N#Cc1cc2c(cc1Cl)N1CCCC[C@H]1CCC/C=C/c1ccc(C(=O)O)cc1S(=O)(=O)N2"
reported_value = "6.00 to 6.60"

[[record]]
molecule = "N#Cc1cc2c(cc1Cl)N1CCCCC1CCCCOc1ccc(C(=O)O)cc1S(=O)(=O)N2 (single isomer, unassigned) [Example 26]"
reported_value = "> 6.60"

[[record]]
molecule = "N#Cc1cc2c(cc1Cl)N1CCCC[C@H]1COCCOc1ccc(C(=O)O)cc1S(=O)(=O)N2"
reported_value = "> 6.60"


Would you kindly look at the next entry?
## Task Look up pIC50: N#Cc1ccc2c(c1)NS(=O)(=O)c1cc(C(=O)O)ccc1OC/C=C/CC1CCCCN21 (racemic)
## Result > 6.60
